Counter-ions that a name gives are not always drawn.
# maps each entry to its melting point

The cases that follow already have their melting point on record.
The compound listed as COCCN1CCN(c2cccc(-n3cnc4cc(C(=O)OCCO)ccc43)c2)CC1 (as salt: HCl) [Compound 1f] shows melting point equal to 159 to 162 °C

The compound listed as CCOCCN1CCN(c2cccc(-n3cnc4cc(C(=O)OCC(C)C)ccc43)c2)CC1 (as salt: HCl) [Compound 1d] shows melting point equal to 154 to 160 °C

The compound listed as CCCCOC(=O)c1ccc2c(c1)ncn2-c1cccc(N2CCN(CCOC)CC2)c1 (as salt: HCl) [Compound 1g] shows melting point equal to 148 to 152 °C

The compound listed as COCCOC(=O)c1ccc2c(c1)ncn2-c1cccc(N2CCN(CCOC)CC2)c1 (as salt: HCl) [Compound 1e] shows melting point equal to 173 to 178 °C

The record that follows has no melting point shown yet.
The compound listed as CCCCOC(=O)c1ccc2c(c1)ncn2-c1cccc(N2CCN(CCOCC)CC2)c1 (as salt: HCl) [Compound 1c] shows melting point equal to 92 to 95 °C

Source listed as patent US20060241101A1.
